- test-context: in methanol, 288.15 K

smiles-repr: CO/N=C(\C(=O)N[C@@H]1C(=O)N2C(C(=O)O)=C(CSc3nnnn3C)CS[C@H]12)c1csc(N)n1.CO/N=C(\C(=O)N[C@@H]1C(=O)N2C(C(=O)O)=C(CSc3nnnn3C)CS[C@H]12)c1csc(N)n1.Cl
solubility (mole fraction): 0.000196

* * *

- test-context: in methanol, 303.15 K
parameter: solubility (mole fraction)

smiles-repr: CO/N=C(\C(=O)N[C@@H]1C(=O)N2C(C(=O)O)=C(CSc3nnnn3C)CS[C@H]12)c1csc(N)n1.CO/N=C(\C(=O)N[C@@H]1C(=O)N2C(C(=O)O)=C(CSc3nnnn3C)CS[C@H]12)c1csc(N)n1.Cl
observed: 0.000253

* * *

- test-context: in water, 298.15 K
parameter: solubility (mole fraction)

smiles-repr: CO/N=C(\C(=O)N[C@@H]1C(=O)N2C(C(=O)O)=C(CSc3nnnn3C)CS[C@H]12)c1csc(N)n1.CO/N=C(\C(=O)N[C@@H]1C(=O)N2C(C(=O)O)=C(CSc3nnnn3C)CS[C@H]12)c1csc(N)n1.Cl
observed: 4.76e-05

* * *

- test-context: in water, 288.15 K

smiles-repr: CO/N=C(\C(=O)N[C@@H]1C(=O)N2C(C(=O)O)=C(CSc3nnnn3C)CS[C@H]12)c1csc(N)n1.CO/N=C(\C(=O)N[C@@H]1C(=O)N2C(C(=O)O)=C(CSc3nnnn3C)CS[C@H]12)c1csc(N)n1.Cl
solubility (mole fraction): 3.59e-05

* * *

- test-context: in water, 308.15 K

smiles-repr: CO/N=C(\C(=O)N[C@@H]1C(=O)N2C(C(=O)O)=C(CSc3nnnn3C)CS[C@H]12)c1csc(N)n1.CO/N=C(\C(=O)N[C@@H]1C(=O)N2C(C(=O)O)=C(CSc3nnnn3C)CS[C@H]12)c1csc(N)n1.Cl
solubility (mole fraction): 5.88e-05

Reference source for all entries: BigSolDB 2.1
